# System: NanoLuc
# run.description: NanoLuc luciferase reporter expression from constitutive promoters and RBSs integrated with pNBU2
# Assay type: cell-based, B. thetaiotaomicron
# experimental.setup: RBS combined with promoter PBT1311, NanoLuc reporter, three biological replicates
property.name: Average Luminescence (RLU/CFU)
Could you give me the number in RLU/CFU? Just the number is fine.

Below, each entry is followed by its recorded Average Luminescence (RLU/CFU) result.
>  <substance>
B3: RBS, SEQ ID NO: 3 (DNA TCCCGCATTTTAAAATAAAATAAATAATATAATTAATTAAACGAAT; chemistry not fully specified)

>  <unit.descriptor>
RLU/CFU

>  <Average Luminescence (RLU/CFU)>
0.06083

$$$$
>  <substance>
C40: RBS, SEQ ID NO: 115 (DNA TCCCGCATTTTAAAATAAAATAAATTATTCCTTTACTTAAACGAAT; chemistry not fully specified)

>  <unit.descriptor>
RLU/CFU

>  <Average Luminescence (RLU/CFU)>
0.003759

$$$$
>  <substance>
B8: RBS, SEQ ID NO: 9 (DNA TCCCGCATTTTAAAATAAAATAAATTATTTAATTAATTAAACGAAT; chemistry not fully specified)

>  <unit.descriptor>
RLU/CFU

>  <Average Luminescence (RLU/CFU)>
0.04684

$$$$

Param item = B34: RBS, SEQ ID NO: 98 (DNA TCCCGCATTTTAAAATAAAATAAATCATCTATTTAATTAAACGAAT; chemistry not fully specified) ; retrieve measured Average Luminescence (RLU/CFU).
0.00584

Again, but for C27: RBS, SEQ ID NO: 76 (DNA TCCCGCATTTTAAAATAAAATAAATTATTTTTTTAGTTAAACGAAT; chemistry not fully specified)
0.009752

How about C41: RBS, SEQ ID NO: 117 (DNA TCCCGCATTTTAAAATAAAATAAATTATTGGTTTATTTAAACGAAT; chemistry not fully specified) ?
0.003107

Now the substance A5: RBS, SEQ ID NO: 32 (DNA TCCCGCATTTTAAAATAAAATAAATTATTTCTTTACTTAAACGAAT; chemistry not fully specified)
0.02579

Another substance: C21: RBS, SEQ ID NO: 54 (DNA TCCCGCATTTTAAAATAAAATAAATTATTGGTTTAATTAAACGAAT; chemistry not fully specified)
0.01602

====

# Tested on: NanoLuc
# run.description: NanoLuc luciferase reporter expression from constitutive promoters and RBSs integrated with pNBU2
# Type: cell-based, B. thetaiotaomicron
# experimental.setup: RBS combined with promoter PBT1311, NanoLuc reporter, three biological replicates
Catalogue of Average Luminescence (RLU/CFU) readings, one per entry.
State just the number; it will be interpreted in RLU/CFU.

>  <substance>
A37: RBS, SEQ ID NO: 113 (DNA TCCCGCATTTTAAAATAAAATAAATTATTTGTTTAATTAAACGAAT; chemistry not fully specified)

>  <property.name>
Average Luminescence (RLU/CFU)

>  <unit.descriptor>
RLU/CFU

>  <recorded.result>
0.003964

$$$$
>  <substance>
B33: RBS, SEQ ID NO: 97 (DNA TCCCGCATTTTAAAATAAAATAAATCATGTATTTAATTAAACGAAT; chemistry not fully specified)

>  <property.name>
Average Luminescence (RLU/CFU)

>  <unit.descriptor>
RLU/CFU

>  <recorded.result>
0.006272

$$$$
>  <substance>
A27: RBS, SEQ ID NO: 89 (DNA TCCCGCATTTTAAAATAAAATAAATTATTGGTTTAGTTAAACGAAT; chemistry not fully specified)

>  <property.name>
Average Luminescence (RLU/CFU)

>  <unit.descriptor>
RLU/CFU

>  <recorded.result>
0.007908

$$$$
>  <substance>
B1: RBS, SEQ ID NO: 1 (DNA TCCCGCATTTTAAAATAAAATAAATTATTCGTTTAGTTAAACGAAT; chemistry not fully specified)

>  <property.name>
Average Luminescence (RLU/CFU)

>  <unit.descriptor>
RLU/CFU

>  <recorded.result>
0.09025

$$$$
>  <substance>
C17: RBS, SEQ ID NO: 45 (DNA TCCCGCATTTTAAAATAAAATAAATTATTAGTTTATTTAAACGAAT; chemistry not fully specified)

>  <property.name>
Average Luminescence (RLU/CFU)

>  <unit.descriptor>
RLU/CFU

>  <recorded.result>
0.01871

$$$$

Now for a further substance.
Dear colleague, I am looking for the recorded Average Luminescence (RLU/CFU) of the following substance: B7: RBS, SEQ ID NO: 8 (DNA TCCCGCATTTTAAAATAAAATAAATAATCTACTTAATTAAACGAAT; chemistry not fully specified)
0.04704

====

# Tested on: NanoLuc
# run.description: NanoLuc luciferase reporter expression from constitutive promoters and RBSs integrated with pNBU2
# Type: cell-based, B. thetaiotaomicron
# experimental.setup: RBS combined with promoter PBT1311, NanoLuc reporter, three biological replicates
Give 1 (yes) when the value for Average Luminescence (RLU/CFU) is at least 0.01 RLU/CFU. Give 0 (no) when it is less.

Check out these entries, answers already filled in.
>  <substance>
B16: RBS, SEQ ID NO: 28 (DNA TCCCGCATTTTAAAATAAAATAAATTATATACTTAATTAAACGAAT; chemistry not fully specified)

>  <category.label>
1 (yes)

$$$$
>  <substance>
A39: RBS, SEQ ID NO: 116 (DNA TCCCGCATTTTAAAATAAAATAAATTATTGTTTTATTTAAACGAAT; chemistry not fully specified)

>  <category.label>
0 (no)

$$$$
>  <substance>
A19: RBS, SEQ ID NO: 70 (DNA TCCCGCATTTTAAAATAAAATAAATTATTTTTTTATTTAAACGAAT; chemistry not fully specified)

>  <category.label>
1 (yes)

$$$$
>  <substance>
C20: RBS, SEQ ID NO: 51 (DNA TCCCGCATTTTAAAATAAAATAAATTATTGTTTTAGTTAAACGAAT; chemistry not fully specified)

>  <category.label>
1 (yes)

$$$$
>  <substance>
C23: RBS, SEQ ID NO: 60 (DNA TCCCGCATTTTAAAATAAAATAAATTATTGATTTACTTAAACGAAT; chemistry not fully specified)

>  <category.label>
1 (yes)

$$$$

Determine whether this substance has Average Luminescence (RLU/CFU) no lower than 0.01 RLU/CFU: B39: RBS, SEQ ID NO: 133 (DNA TCCCGCATTTTAAAATAAAATAAATCATCTAGTTAATTAAACGAAT; chemistry not fully specified)
0 (no)

====

# Tested on: NanoLuc
# run.description: NanoLuc luciferase reporter expression from constitutive promoters and RBSs integrated with pNBU2
# Type: cell-based, B. thetaiotaomicron
# experimental.setup: RBS combined with promoter PBT1311, NanoLuc reporter, three biological replicates
In plain terms, low Average Luminescence (RLU/CFU), meaning strictly below 0.03 RLU/CFU, gives True, and everything else gives False.

>  <substance>
C8: RBS, SEQ ID NO: 21 (DNA TCCCGCATTTTAAAATAAAATAAATTATTTATCGAATTAAACGAAT; chemistry not fully specified)

>  <category.label>
False

$$$$
>  <substance>
B11: RBS, SEQ ID NO: 18 (DNA TCCCGCATTTTAAAATAAAATAAATAATGTAATTAATTAAACGAAT; chemistry not fully specified)

>  <category.label>
False

$$$$
>  <substance>
C2: RBS, SEQ ID NO: 13 (DNA TCCCGCATTTTAAAATAAAATAAATTATTACTTTAGTTAAACGAAT; chemistry not fully specified)

>  <category.label>
False

$$$$
>  <substance>
C52: RBS, SEQ ID NO: 138 (DNA TCCCGCATTTTAAAATAAAATAAATTATTGGTTTACTTAAACGAAT; chemistry not fully specified)

>  <category.label>
True

$$$$
>  <substance>
A13: RBS, SEQ ID NO: 58 (DNA TCCCGCATTTTAAAATAAAATAAATTATTGATTTACTTAAACGAAT; chemistry not fully specified)

>  <category.label>
True

$$$$

Please examine the following record next.
Decide: Average Luminescence (RLU/CFU) of A42: RBS, SEQ ID NO: 130 (DNA TCCCGCATTTTAAAATAAAATAAATTATTGGTTTACTTAAACGAAT; chemistry not fully specified) strictly below 0.03 RLU/CFU?
True

====

# Test system: NanoLuc
# run.description: NanoLuc luciferase reporter expression from constitutive promoters and RBSs integrated with pNBU2
# Assay type: cell-based, B. thetaiotaomicron
# experimental.setup: set of 8 RBSs, under control of PBT1311, NanoLuc reporter
# Protocol: FIGS. 1A-1G. Genetic parts to control expression in B. thetaiotaomicron. (FIG. 1A) The ranges of gene expression are shown for the different gene regulation systems provided herein. (FIG. 1B) IntN2 catalyzes stable integration of pNBU2-based expression constructs into one of two attBT2 sites in the B. thetaiotaomicron genome. […] (FIG. 1D) Activity was measured for a set of constitutive promoters and their cognate RBSs. […] Gene expression was measured using a luciferase reporter (NanoLuc). […]
property.name: Expression Level (RLU/CFU)
Give the number; RLU/CFU is assumed, so skip it.

>  <substance>
C52: RBS, SEQ ID NO: 138 (DNA TCCCGCATTTTAAAATAAAATAAATTATTGGTTTACTTAAACGAAT; chemistry not fully specified)

>  <Expression Level (RLU/CFU)>
1.63E-04

$$$$

// switching to the query substance
What measured Expression Level (RLU/CFU) goes with C53: RBS, SEQ ID NO: 140 (DNA TCCCGCATTTTAAAATAAAATAAATTATTCGTTTAATTAAACGAAT; chemistry not fully specified) ?
7.30E-05
